assay.text: Measurement of solubility of electron-accepting compound to solvent (saturated solution, gravimetric)
Format: physicochemical
particulars: saturated solution at 20° C.±3° C.; ethanol
value.kind: Solubility, alcohol solvent ethanol (% by mass)

Solved cases below.
molecule="Cc1ccc(S(=O)(=O)NC(=O)Nc2cccc(OS(=O)(=O)c3ccc(C)cc3)c2)cc1 [Electron-Accepting Compound 4]" reported=0.4
molecule="O=S(=O)(c1ccc(O)cc1)c1ccc(O)cc1 [Electron-Accepting Compound 6, 4,4′-sulfonylbisphenol, reference compound]" reported=34.1
molecule="Cc1ccc(S(=O)(=O)Oc2cccc(NC(=O)Nc3cccc(OS(=O)(=O)c4ccc(C)cc4)c3)c2)cc1 [Electron-Accepting Compound 5]" reported=0.1

(A) Oc1ccc(C2(c3ccc(O)cc3)c3ccccc3-c3ccccc32)cc1 [Electron-Accepting Compound 1, 9,9-Bis(4-hydroxyphenyl)fluorene]
(B) Cc1ccc(S(=O)(=O)Oc2cccc(NC(=O)Nc3ccccc3)c2)cc1 [Electron-Accepting Compound 3]
-- ask From the recorded data, which exceeds the other in Solubility, alcohol solvent ethanol: A or B ? Kindly give the label for the entry you pick.
-- reply A
